- test system: T7 RNA polymerase (Escherichia phage T7, UniProt P00573)
- Sequence (P00573 whole entry): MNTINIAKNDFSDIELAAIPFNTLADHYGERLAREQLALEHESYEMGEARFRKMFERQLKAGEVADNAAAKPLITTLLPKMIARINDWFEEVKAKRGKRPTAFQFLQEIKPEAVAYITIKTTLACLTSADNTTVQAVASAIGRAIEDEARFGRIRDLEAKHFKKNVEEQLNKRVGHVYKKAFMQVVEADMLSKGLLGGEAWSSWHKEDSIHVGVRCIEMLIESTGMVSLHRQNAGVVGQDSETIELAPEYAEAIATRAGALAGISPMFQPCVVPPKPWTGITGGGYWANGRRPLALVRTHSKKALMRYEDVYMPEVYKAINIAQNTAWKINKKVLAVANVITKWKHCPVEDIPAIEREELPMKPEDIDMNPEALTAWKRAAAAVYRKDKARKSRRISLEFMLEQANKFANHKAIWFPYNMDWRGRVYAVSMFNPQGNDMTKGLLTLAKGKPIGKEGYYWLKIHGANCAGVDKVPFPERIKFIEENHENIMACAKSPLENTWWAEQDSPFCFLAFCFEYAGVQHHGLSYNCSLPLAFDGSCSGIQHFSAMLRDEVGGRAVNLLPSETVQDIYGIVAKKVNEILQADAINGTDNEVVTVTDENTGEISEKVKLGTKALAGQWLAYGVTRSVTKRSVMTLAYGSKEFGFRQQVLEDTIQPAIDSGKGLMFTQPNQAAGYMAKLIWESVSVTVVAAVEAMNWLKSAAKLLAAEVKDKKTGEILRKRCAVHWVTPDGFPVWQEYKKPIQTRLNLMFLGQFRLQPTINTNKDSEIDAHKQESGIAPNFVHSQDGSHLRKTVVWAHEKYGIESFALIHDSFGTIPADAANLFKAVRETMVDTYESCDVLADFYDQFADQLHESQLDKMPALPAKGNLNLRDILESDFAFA
- procedure summary: Capping rate of mRNA transcription initiated by cap analogs (LC-MS)
- Format: biochemical
- condition description: LC-MS of mRNA 5′ fragment
test readout: Capping rate (%)
Supply the numeric figure in %, leaving out any unit text.

IN: Send back T7 RNA polymerase (Escherichia phage T7, UniProt P00573) Capping rate of CO[C@@H]1[C@H](OP(=O)(O)OC[C@H]2O[C@@H](n3cnc4c(=O)[nH]c(N)nc43)[C@H](O)[C@@H]2O)[C@@H](COP(=O)(O)OP(=O)(O)OP(=O)(O)OC[C@@]2(C(F)F)O[C@@H]([n+]3cn(C)c4c(=O)[nH]c(N)nc43)[C@H](O)[C@@H]2O)O[C@H]1n1cnc2c(N)ncnc21 only.
OUT: 96.3

###

- test system: DCP2 enzyme (Schizosaccharomyces pombe, UniProt O13828)
- Construct: purchased New England Biolabs
- Sequence (O13828 1-243 limits assumed): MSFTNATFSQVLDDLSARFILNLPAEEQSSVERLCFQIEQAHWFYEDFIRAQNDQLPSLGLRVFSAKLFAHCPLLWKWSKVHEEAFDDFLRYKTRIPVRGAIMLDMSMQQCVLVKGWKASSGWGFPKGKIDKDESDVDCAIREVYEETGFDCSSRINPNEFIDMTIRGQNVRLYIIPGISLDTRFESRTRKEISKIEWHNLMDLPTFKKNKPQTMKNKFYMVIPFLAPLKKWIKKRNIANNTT
- Sequence (Q9P805 whole entry partner): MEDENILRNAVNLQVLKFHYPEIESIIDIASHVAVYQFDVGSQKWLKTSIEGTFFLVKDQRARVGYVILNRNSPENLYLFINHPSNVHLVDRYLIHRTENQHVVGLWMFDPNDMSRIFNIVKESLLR
- Sequence (Q10108 155-180 partner limits assumed): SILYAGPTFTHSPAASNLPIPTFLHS
- procedure summary: Decapping enzyme stability test
- Assay type: biochemical
- condition description: 50 U mRNA decapping enzyme, 37° C., 45 minutes
met means recorded Decapping rate (%) of DCP2 enzyme is 30% or above; not met means it is below 30%.

Known results for compounds:
compound: CO[C@@H]1[C@H](OP(=O)(O)OC[C@H]2O[C@@H](n3cnc4c(=O)[nH]c(N)nc43)[C@H](O)[C@@H]2O)[C@@H](COP(=O)(O)OP(=O)(O)OP(=O)(O)OC[C@@]2(OC)O[C@@H]([n+]3cn(C)c4c(=O)[nH]c(N)nc43)[C@H](O)[C@@H]2O)O[C@H]1n1cnc2c(N)ncnc21 [compound 5227, reference compound]
test system: DCP2 enzyme (Schizosaccharomyces pombe, UniProt O13828)
group: not met

compound: COC[C@@H]1[C@H](OP(=O)(O)OC[C@H]2O[C@@H](n3cnc4c(=O)[nH]c(N)nc43)[C@H](O)[C@@H]2O)[C@@H](COP(=O)(O)OP(=O)(O)OP(=O)(O)OC[C@H]2O[C@@H]([n+]3cn(C)c4c(=O)[nH]c(N)nc43)[C@H](O)[C@@H]2O)O[C@H]1n1cnc2c(N)ncnc21 [YK-CAP-113]
test system: DCP2 enzyme (Schizosaccharomyces pombe, UniProt O13828)
group: not met

IN: Quick check, Decapping rate (%) of DCP2 enzyme >= 30%? CO[C@@H]1[C@H](OP(=O)(O)OC[C@H]2O[C@@H](n3cnc4c(=O)[nH]c(N)nc43)[C@H](O)[C@@H]2O)[C@@H](COP(=O)(O)OP(=O)(O)OP(=O)(O)OC[C@H]2O[C@@H]([n+]3cn(C)c4c(=O)[nH]c(N)nc43)[C@H](O)[C@@H]2O)O[C@H]1n1cnc2c(N)ncnc21 [N-7113, reference compound]
OUT: met

IN: Quick check, Decapping rate (%) of DCP2 enzyme >= 30%? CO[C@@H]1[C@H](OP(=O)(O)OC[C@H]2O[C@@H](n3cnc4c(=O)[nH]c(N)nc43)[C@H](O)[C@@H]2O)[C@@H](COP(=O)(O)OP(=O)(O)OP(=O)(O)OC[C@H]2O[C@@H]([n+]3cn(C)c4c(=O)[nH]c(N)nc43)[C@H](O)[C@@H]2C(F)F)O[C@H]1n1cnc2c(N)ncnc21 [YK-CAP-110]
OUT: not met

IN: Quick check, Decapping rate (%) of DCP2 enzyme >= 30%? CO[C@@H]1[C@H](OP(=O)(O)OC[C@H]2O[C@@H](n3cnc4c(=O)[nH]c(N)nc43)[C@H](O)[C@@H]2O)[C@@H](COP(=O)(O)OP(=O)(O)OP(=O)(O)OC[C@H]2OC([n+]3cn(C)c4c(=O)[nH]c(N)nc43)[C@H](O)[C@@H](O)[C@@H]2O)O[C@H]1n1cnc2c(N)ncnc21 (stereo partly shown) [YK-CAP-101]
OUT: met

IN: Quick check, Decapping rate (%) of DCP2 enzyme >= 30%? CO[C@@H]1[C@H](OP(=O)(O)OC[C@H]2O[C@@H](n3cnc4c(=O)[nH]c(N)nc43)[C@H](O)[C@@H]2O)[C@@H](COP(=O)(O)OP(=O)(O)OP(=O)(O)OC[C@@]2(C(F)F)O[C@@H]([n+]3cn(C)c4c(=O)[nH]c(N)nc43)[C@H](O)[C@@H]2O)O[C@H]1n1cnc2c(N)ncnc21 [YK-CAP-119]
OUT: not met

IN: Quick check, Decapping rate (%) of DCP2 enzyme >= 30%? CO[C@@H]1[C@H](OP(=O)(O)OC[C@H]2O[C@@H](n3cnc4c(=O)[nH]c(N)nc43)[C@H](O)[C@@H]2O)[C@@H](COP(=O)(O)OP(=O)(O)OP(=O)(O)OC[C@H]2O[C@@H](C[n+]3cn(C)c4c(=O)[nH]c(N)nc43)[C@H](O)[C@@H]2O)O[C@H]1n1cnc2c(N)ncnc21 [YK-CAP-103]
OUT: met

###

- System: BALB/C mice
- procedure summary: In vivo imaging of Fluc-mRNA LNP expression in mice
- condition description: 6 h; 5 μg Fluc-mRNA LNP intramuscular, mice
Listed here are molecules together with their documented Total radiation intensity.

Completed entries (count: 5):
molecule: CNc1ncnc2c1ncn2[C@@H]1O[C@H](COP(=O)(O)OP(=O)(O)OP(=O)(O)OC[C@H]2O[C@@H]([n+]3cn(C)c4c(=O)[nH]c(N)nc43)[C@H](O)[C@@H]2O)[C@@H](OP(=O)(O)OC[C@H]2O[C@@H](n3cnc4c(=O)[nH]c(N)nc43)[C@H](O)[C@@H]2O)[C@H]1OC [m6A, reference compound]
test system: BALB/C mice
test readout: Total radiation intensity
result: 2.35 ×108 p/s
--
molecule: CCO[C@@H]1[C@H](OP(=O)(O)OC[C@H]2O[C@@H](n3cnc4c(=O)[nH]c(N)nc43)[C@H](O)[C@@H]2O)[C@@H](COP(=O)(O)OP(=O)(O)OP(=O)(O)OC[C@H]2O[C@@H]([n+]3cn(C)c4c(=O)[nH]c(N)nc43)[C@H](O)[C@@H]2O)O[C@H]1n1cnc2c(N)ncnc21 [CAP-2′O-ethyl, reference compound]
test system: BALB/C mice
test readout: Total radiation intensity
result: 5.41 ×108 p/s
--
molecule: CO[C@@H]1[C@H](OP(=O)(O)OC[C@H]2O[C@@H](n3cnc4c(=O)[nH]c(N)nc43)[C@H](O)[C@@H]2O)[C@@H](COP(=O)(O)OP(=O)(O)OP(=O)(O)OC[C@H]2O[C@@H]([n+]3cn(C)c4c(=O)[nH]c(N)nc43)[C@H](O)[C@@H]2C(C)NC(C)=O)O[C@H]1n1cnc2c(N)ncnc21 (some centres unmarked)
test system: BALB/C mice
test readout: Total radiation intensity
result: 6.42 ×108 p/s
--
molecule: COC[C@]1(COP(=O)(O)OP(=O)(O)OP(=O)(O)OC[C@H]2O[C@@H](n3cnc4c(N)ncnc43)[C@H](OC)[C@@H]2OP(=O)(O)OC[C@H]2O[C@@H](n3cnc4c(=O)[nH]c(N)nc43)[C@H](O)[C@@H]2O)O[C@@H]([n+]2cn(C)c3c(=O)[nH]c(N)nc32)[C@H](O)[C@@H]1O
test system: BALB/C mice
test readout: Total radiation intensity
result: 8.99 ×108 p/s
--
molecule: CO[C@@H]1[C@H](OP(=O)(O)OC[C@H]2O[C@@H](n3cnc4c(=O)[nH]c(N)nc43)[C@H](O)[C@@H]2O)[C@@H](COP(=O)(O)OP(=O)(O)OP(=O)(O)OC[C@@]2(CF)O[C@@H]([n+]3cn(C)c4c(=O)[nH]c(N)nc43)[C@H](O)[C@@H]2O)O[C@H]1n1cnc2c(N)ncnc21
test system: BALB/C mice
test readout: Total radiation intensity
result: 7.06 ×108 p/s

IN: Could you please provide reported Total radiation intensity for COC(C)[C@H]1[C@@H](O)[C@H]([n+]2cn(C)c3c(=O)[nH]c(N)nc32)O[C@@H]1COP(=O)(O)OP(=O)(O)OP(=O)(O)OC[C@H]1O[C@@H](n2cnc3c(N)ncnc32)[C@H](OC)[C@@H]1OP(=O)(O)OC[C@H]1O[C@@H](n2cnc3c(=O)[nH]c(N)nc32)[C@H](O)[C@@H]1O (some centres unmarked) ? Thanks!
OUT: 8.09 ×108 p/s

IN: Could you please provide reported Total radiation intensity for CO[C@@H]1[C@H](OP(=O)(O)OC[C@H]2O[C@@H](n3cnc4c(=O)[nH]c(N)nc43)[C@H](O)[C@@H]2O)[C@@H](COP(=O)(O)OP(=O)(O)OP(=O)(O)OC[C@H]2OC([n+]3cn(C)c4c(=O)[nH]c(N)nc43)[C@H](O)[C@@H](O)[C@@H]2O)O[C@H]1n1cnc2c(N)ncnc21 (some centres unmarked) ? Thanks!
OUT: 1.81 ×108 p/s

IN: Could you please provide reported Total radiation intensity for CO[C@@H]1[C@H](OP(=O)(O)OC[C@H]2O[C@@H](n3cnc4c(=O)[nH]c(N)nc43)[C@H](O)[C@@H]2O)[C@@H](COP(=O)(O)OP(=O)(O)OP(=O)(O)OC[C@@]2(C(F)F)O[C@@H]([n+]3cn(C)c4c(=O)[nH]c(N)nc43)[C@H](O)[C@@H]2O)O[C@H]1n1cnc2c(N)ncnc21 ? Thanks!
OUT: 7.47 ×108 p/s
